Field: TGI. Provide a value for each of the compounds that follow.
- Tested on: HOP-18 NSCLC
- assayText: NCI tumour cell line growth inhibition, 48 h

Entry O=C(NN1C(=O)C(Cl)C1c1c(O)ccc2ccccc12)c1ccccc1O (configuration not stated) , TGI reported as > 100 µM

For reference, reported TGI for CC1CCC2c3c([nH]c4ccccc34)C3C(=O)N(c4ccccc4)C(=O)C3C2C1 (configuration not stated) stands at 69.9 µM

Record CCOc1ccc(/C=C2/C(=O)N=C(N)N=C2N)cc1OCC . Reported TGI: > 100 µM

get_value(item= O=c1c2cccc3cccc(c4n1CCCN=4)c32 , readout=TGI) returns > 100 µM

Record summary for CC1CCN(c2cc(-c3cc4ccccc4o3)oc(=O)c2C#N)CC1 : reported TGI = > 100 µM

compound O=c1[nH]c(=O)n(C2CC(O)C(O)C(CO)O2)cc1F (configuration not stated) , TGI observed: > 100 µM

Lab book: TGI of CN(C)CCNC(=O)c1cccc2cc3ccc4ccccc4c3nc12 noted as 0.665 µM

###

Please go through the items and note down their GI50.
- System: EKVX NSCLC
- assayText: NCI tumour cell line growth inhibition, 48 h

Test item O=C1c2ccccc2-c2c1c1ccc([N+](=O)[O-])cc1c(=O)n2CCCCl ; EKVX NSCLC; reported GI50 was > 100 µM

Record O=C(/C=C/c1cccc(Oc2ccc(Cl)cc2)c1)c1ccccc1 / EKVX NSCLC, GI50 recorded as 104 µM

Observed GI50 on EKVX NSCLC, entry N=C(N)c1ccc(OCCCCCOc2ccc(C(=N)N)cc2)cc1 , equals 8.89 µM

The recorded GI50 with EKVX NSCLC for Cc1ccc(O)cc1Nc1ccnc2cc(-c3ccccn3)ccc12 was 3.61 µM

# O=C(CN(/C=C/C(=O)C(F)(F)F)c1ccccc1)c1ccc(F)cc1 with EKVX NSCLC: GI50 is 49.9 µM

Known value: EKVX NSCLC GI50 of the molecule CCOc1cc(/C=C/C(=O)CC(=O)/C=C/c2ccc(OC(=O)CNCCN(CC)CC)c(OCC)c2)ccc1OC(=O)CNCCN(CC)CC equals 1.5 µM

###

Consider the following compounds; for each one, report its TGI.
- System: SN12C renal
- assayText: NCI tumour cell line growth inhibition, 48 h

Record O=C(O)c1ccccc1CC(Cc1ccccc1)C(=O)O (stereo unspecified) / SN12C renal, TGI recorded as > 100 µM

Measured TGI (SN12C renal), entry CCOC(=O)c1cc2cc(OCc3ccccc3)ccc2[nH]1 : > 100 µM

Measured on SN12C renal, O=C(/C=C\c1ccc(/C=C/C(=O)Nc2cccc(C3=NCCCN3)c2)cc1)Nc1cccc(C2=NCCCN2)c1 has a documented TGI of > 100 µM

Item: CC1=C2CC(C)(C)CC(=O)C2(C)CCC1=O (stereo unspecified) | System: SN12C renal | TGI: > 100 µM

Item: Nc1c(C(=O)Nc2ccccn2)sc2nc3c(cc12)CCCCCC3 | System: SN12C renal | TGI: 37.3 µM

Lab note: compound C/C(=N\Nc1nc2ccccc2n1C)c1ccc2ccccc2n1 tested on SN12C renal; recorded TGI was 16.2 µM

# lookup: COc1ccc(C(=O)/C=C/c2ccc(OCc3ccccc3)c(OC)c2)cc1OC on SN12C renal, TGI = > 100 µM

Item C=CCCCCCCCCC(=O)ON(Cc1ccc(O)c(OC)c1)C(=O)C(F)(F)F was tested on SN12C renal; the reported TGI is > 100 µM

The recorded TGI with SN12C renal for N/C(=N\N=C/c1cc([N+](=O)[O-])cc([N+](=O)[O-])c1O)NO was > 100 µM

For the compound N#Cc1c(N)nc2n[nH]c(N)c2c1-c1ccccc1 , the measured TGI on SN12C renal was 31.8 µM

The compound O=S(=O)(c1ccc2ccccc2c1)N1CCN(S(=O)(=O)c2ccc3ccccc3c2)CC1 , tested on SN12C renal, showed TGI of > 100 µM
